The entries below come with measured Ratio IC50 values attached.
Species: Homo sapiens
Experiment: Selectivity ratio of IC50 for human full length HA-tagged CD95/FADD (unknown origin) protein-protein interaction to IC50 for human full length HA-tagged CD95/human full length Myc-tagged PLCgamma1 protein-protein interaction
// print number alone

Study these solved cases before continuing.
CCCCCCCCCCCCCCCCCC(=O)N(CCN)[C@@H](CCCNC(=N)N)C(=O)NCCN(C(=O)CCCCCN)[C@@H](Cc1c[nH]cn1)C(=O)NCCN(C(=O)CCCCNC(=N)N)[C@@H](CCCCN)C(N)=O.O=C(O)C(F)(F)F.O=C(O)C(F)(F)F.O=C(O)C(F)(F)F.O=C(O)C(F)(F)F.O=C(O)C(F)(F)F	1.1
N=C(N)NCCCCC(=O)N(CCNC(=O)[C@@H](N)CS)[C@@H](CCCCN)C(=O)NCCN(C(=O)CCc1c[nH]cn1)[C@@H](CCCNC(=N)N)C(=O)NCCNC(=O)CCCCCN	1.1
N=C(N)NCCCCC(=O)N(CCNC(=O)[C@H](Cc1c[nH]cn1)N(CCNC(=O)[C@H](CCCNC(=N)N)N(CCN)C(=O)CCS)C(=O)CCCCCN)[C@@H](CCCCN)C(N)=O	50
C[C@@H](O)CC(=O)N(CCN)[C@@H](CS)C(=O)NCCN(C(=O)CCCCNC(=N)N)[C@@H](CCCCN)C(=O)NCCN(C(=O)CCc1c[nH]cn1)[C@@H](CCCNC(=N)N)C(=O)NCCNC(=O)CCCCCN	1.4

Attention now shifts to the item below.
Prompt: Reported Ratio IC50 for `C[C@@H](O)CC(=O)N[C@@H](CS)C(=O)NCCN(C(=O)CCCCNC(=N)N)[C@@H](CCCCN)C(=O)NCCN(C(=O)CCc1c[nH]cn1)[C@@H](CCCNC(=N)N)C(=O)NCCNC(=O)CCCCCN` : what is it?
Completion: 2
